Attribute: %Inh
System: CSK;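 note: KINOMEscan kinase panel screen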
study.conditions: concentration: 1 μM, replicates: in singlicate; n = 1

compound | %Inh (%)
Cl.O=S(=O)(c1cccc(F)c1)c1ccc(Nc2ncnc3cc(Br)sc23)cc1Cl [GSK306886] | 30
Cn1ccc2ncnc(Oc3ccc(NC(=O)Nc4cccnc4)c(Cl)c3)c21 | 0
O=C(NCCCN1CCCC1=O)c1cnc(NCc2cc(Cl)ccc2Cl)nc1NC1CCNCC1 | 0
OCCOCCn1ccc2ncnc(Nc3ccc(Oc4cccc(Cl)c4)c(Cl)c3)c21 | 0
Nc1nc(-c2ccccn2)c(-c2ccnc3ccccc23)s1 [GW548057] | 3
Clc1ccc(-c2cc(-c3c[nH]nc3-c3ccccn3)ccn2)cc1 [GW681251] | 0
